SYSTEM NAME: UniProt:P10275
ASSAY INFO: AR Antagonist Cell Assay (MDA-MB453-MMTV clone 54-19, luciferase reporter)
Type: cell-based
ASSAY CONDITIONS: inhibition of induction by DHT (final concentration at 100 μM), 17 hr; compound 0.32-1000 nM; mean of multiple tests
// reported pIC50 per item
Please report pIC50 as the negative decimal logarithm of the molar concentration, giving only the number.

CC1(C)CN(Cc2ccc(O)cc2)C(=O)C1Oc1ccc(C#N)c(C(F)(F)F)c1 (stereo not shown) [Example 8] : 7.48
CC1(C)CN(Cc2nc(-c3ccccc3)no2)C(=O)C1Oc1ccc(C#N)c(C(F)(F)F)c1 (stereo not shown) : 7.27
CC1(C)CN(Cc2ccccc2)C(=O)C1Oc1ccc(C#N)c(C(F)(F)F)c1 (single isomer, unassigned; (+)) [Example 6] : 6.87
CC1(C)CN(Cc2ccccc2)C(=O)C1Oc1ccc(C#N)c(C(F)(F)F)c1 (stereo not shown) [Example 5] : 7.92
CC1(C)CN(Cc2ccc(O)cc2)C(=O)C1Oc1ccc(C#N)c(C(F)(F)F)c1 (single isomer, unassigned) [Example 9] : 7.34
Cc1ccc(-c2nnc(CN3CC(C)(C)C(Oc4ccc(C#N)c(C(F)(F)F)c4)C3=O)o2)cc1 (stereo not shown) : 7.29

Measured on UniProt:P10275, CC1(C)CN(S(=O)(=O)c2ccsc2)C(=O)C1Oc1ccc(C#N)c(C(F)(F)F)c1 (stereo not shown) has a documented pIC50 of 7.26

---

SYSTEM NAME: UniProt:P10275
Sequence (P10275 1-920 Q868H): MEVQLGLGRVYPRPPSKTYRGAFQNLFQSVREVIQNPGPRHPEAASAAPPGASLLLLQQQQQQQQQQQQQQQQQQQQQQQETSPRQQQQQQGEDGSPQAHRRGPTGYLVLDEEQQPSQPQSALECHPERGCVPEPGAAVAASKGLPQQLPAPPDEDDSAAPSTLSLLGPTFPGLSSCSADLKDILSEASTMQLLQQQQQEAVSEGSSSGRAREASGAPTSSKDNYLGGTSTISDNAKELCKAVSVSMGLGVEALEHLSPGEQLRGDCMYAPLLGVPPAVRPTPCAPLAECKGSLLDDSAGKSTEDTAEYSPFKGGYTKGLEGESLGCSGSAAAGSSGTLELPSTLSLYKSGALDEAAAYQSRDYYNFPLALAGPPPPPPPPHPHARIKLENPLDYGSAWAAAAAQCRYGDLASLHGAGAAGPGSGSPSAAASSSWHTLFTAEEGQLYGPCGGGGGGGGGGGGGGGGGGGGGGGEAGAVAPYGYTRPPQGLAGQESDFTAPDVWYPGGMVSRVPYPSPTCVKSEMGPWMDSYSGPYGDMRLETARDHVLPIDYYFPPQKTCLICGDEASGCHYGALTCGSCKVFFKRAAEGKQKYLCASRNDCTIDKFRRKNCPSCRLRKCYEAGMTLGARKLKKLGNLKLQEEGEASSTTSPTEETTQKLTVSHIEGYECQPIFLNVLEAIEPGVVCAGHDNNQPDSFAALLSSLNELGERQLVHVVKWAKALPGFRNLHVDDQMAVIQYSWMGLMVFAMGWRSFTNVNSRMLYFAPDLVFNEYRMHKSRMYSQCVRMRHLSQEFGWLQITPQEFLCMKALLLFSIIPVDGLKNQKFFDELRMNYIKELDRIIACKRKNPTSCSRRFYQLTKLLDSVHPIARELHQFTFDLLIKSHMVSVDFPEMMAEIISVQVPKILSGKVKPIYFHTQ
ASSAY INFO: AR Antagonist Cell Assay (MDA-MB453-MMTV clone 54-19, luciferase reporter)
Format: cell-based
ASSAY CONDITIONS: inhibition of induction by DHT (final concentration at 100 μM), 17 hr; compound 0.32-1000 nM; mean of multiple tests
PROPERTY LABEL: pIC50
Please report pIC50 as the negative decimal logarithm of the molar concentration, giving only the number.

// worked examples, pIC50 included
CC1(C)CN(Cc2cccc(O)c2)C(=O)C1Oc1ccc(C#N)c(C(F)(F)F)c1 (single isomer, unassigned; (+)) [Example 14] : 7.00
CCCS(=O)(=O)N1CC(C)(C)C(Oc2ccc(C#N)c(C(F)(F)F)c2)C1=O (single isomer, unassigned; (+)) [Example 82] : 7.25
CC1(C)CN(C(=O)c2ccc(C#N)cc2)C(=O)C1Oc1ccc(C#N)c(C(F)(F)F)c1 (stereo not shown) : 7.43
CC1(C)CN(S(=O)(=O)C2CC2)C(=O)C1Oc1ccc(C#N)c(C(F)(F)F)c1 (single isomer, unassigned) [Example 100C] : 7.42
CSCN1CC(C)(C)C(Oc2ccc(C#N)c(C(F)(F)F)c2)C1=O (stereo not shown) [Example 99] : 7.44
CCCS(=O)(=O)N1CC(C)(C)C(Oc2ccc(C#N)c(C(F)(F)F)c2)C1=O (stereo not shown) [Example 75] : 7.80
CCCN1CC(C)(C)[C@@H](Oc2ccc(C#N)c(C(F)(F)F)c2)C1=O : 7.04
CC1(C)CN(S(C)(=O)=O)C(=O)C1Oc1ccc(C#N)c(C(F)(F)F)c1 (single isomer, unassigned; (+)) [Example 96] : 7.44
CCCCN1CC(C)(C)C(Oc2ccc(C#N)c(C(F)(F)F)c2)C1=O (stereo not shown) [Example 19] : 7.72
CC1(C)CN(Cc2noc(-c3ccccc3)n2)C(=O)C1Oc1ccc(C#N)c(C(F)(F)F)c1 (stereo not shown) : 7.37

Notebook: CCOC(=O)c1ccc(CN2CC(C)(C)C(Oc3ccc(C#N)c(C(F)(F)F)c3)C2=O)o1 (stereo not shown) , pIC50 read as 6.91

Notebook: COc1cccc(C(C)N2CC(C)(C)C(Oc3ccc(C#N)c(C(F)(F)F)c3)C2=O)c1 (single isomer, unassigned; (+)) , pIC50 read as 7.24

Notebook: CC1(C)CN(Cc2ccccc2C#N)C(=O)C1Oc1ccc(C#N)c(C(F)(F)F)c1 (stereo not shown) , pIC50 read as 7.38

---

SYSTEM NAME: UniProt P10275
Sequence (P10275 1-920): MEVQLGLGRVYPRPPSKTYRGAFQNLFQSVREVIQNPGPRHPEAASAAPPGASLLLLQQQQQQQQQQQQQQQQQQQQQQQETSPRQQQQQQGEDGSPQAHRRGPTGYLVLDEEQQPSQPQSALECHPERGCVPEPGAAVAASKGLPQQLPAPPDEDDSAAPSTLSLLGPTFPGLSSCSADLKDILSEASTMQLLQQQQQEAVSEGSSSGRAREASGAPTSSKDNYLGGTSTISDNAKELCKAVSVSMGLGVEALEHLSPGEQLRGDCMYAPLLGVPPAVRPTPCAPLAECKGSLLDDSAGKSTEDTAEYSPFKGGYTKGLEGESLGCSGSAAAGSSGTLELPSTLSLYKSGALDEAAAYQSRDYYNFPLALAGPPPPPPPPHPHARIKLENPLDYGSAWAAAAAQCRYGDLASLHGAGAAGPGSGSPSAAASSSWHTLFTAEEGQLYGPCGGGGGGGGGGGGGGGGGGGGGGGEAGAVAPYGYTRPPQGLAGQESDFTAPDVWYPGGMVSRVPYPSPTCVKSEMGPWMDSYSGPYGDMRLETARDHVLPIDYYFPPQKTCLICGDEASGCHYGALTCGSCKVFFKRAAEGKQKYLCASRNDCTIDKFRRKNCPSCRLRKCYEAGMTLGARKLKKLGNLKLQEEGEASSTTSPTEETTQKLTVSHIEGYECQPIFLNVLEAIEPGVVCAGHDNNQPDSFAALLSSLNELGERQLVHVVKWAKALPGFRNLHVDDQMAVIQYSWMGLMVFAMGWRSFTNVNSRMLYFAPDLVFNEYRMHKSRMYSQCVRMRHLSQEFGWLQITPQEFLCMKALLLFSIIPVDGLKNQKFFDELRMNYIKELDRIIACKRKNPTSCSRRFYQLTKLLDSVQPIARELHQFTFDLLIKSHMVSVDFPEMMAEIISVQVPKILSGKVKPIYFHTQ
ASSAY INFO: Competitive binding of 3H-DHT to baculovirus/Sf9 generated hAR extracts
ASSAY CONDITIONS: concentration at which one half of maximum binding of 1 nM 3H-DHT to hAR is inhibited; one hour at 4° C.; mean of multiple tests; read-out: IC50
PROPERTY LABEL: IC50 (nM)
// return numeric value only (unit: nM, not printed)

// worked examples, IC50 included
CC1(C)CN(Cc2ccc(-n3cncn3)cc2)C(=O)C1Oc1ccc(C#N)c(C(F)(F)F)c1 (stereo not shown) : 293
CC1(C)CN(Cc2nnc(-c3ccc(Cl)cc3)o2)C(=O)C1Oc1ccc(C#N)c(C(F)(F)F)c1 (stereo not shown) : 250
CCOc1cccc(-c2nnc(CN3CC(C)(C)C(Oc4ccc(C#N)c(C(F)(F)F)c4)C3=O)o2)c1 (stereo not shown) : 404

Here is another compound to look at.
Notebook: Cc1onc(-c2ccccc2)c1CN1CC(C)(C)C(Oc2ccc(C#N)c(C(F)(F)F)c2)C1=O (stereo not shown) , IC50 read as 277

Cited source: patent US7674819B2
